Test system: morningglory
EXPERIMENT: Test B pre/postemergence morningglory
Assay type: in vivo, Ipomoea hederacea
EXPERIMENTAL_CONTEXT: Preemergence, Rate 125 g/ha; scale of 0 to 10 where 0 is no effect and 10 is complete control
METRIC: Plant response rating, Morningglory
Give bare numbers.

MOLECULE | MEASURED
CC(C)N(C(=O)n1oc(=O)n(C(C)CCl)c1=O)c1ccc(F)cc1F (stereo not drawn) | 0
CC(C)N(C(=O)n1oc(=O)n(C(C)C(=S)N(C)C)c1=O)c1ccc(F)cc1 (stereo not drawn) | 0

Fill in reported Plant response rating, Morningglory for this entry: CCOC(=O)CC(C(=O)OCC)n1c(=O)on(C(=O)N(c2ccc(F)cc2F)C(C)C)c1=O (stereo not drawn)
0

----------
Test system: crabgrass
EXPERIMENT: Test B pre/postemergence crabgrass
Assay type: in vivo, Digitaria sanguinalis
EXPERIMENTAL_CONTEXT: Preemergence, Rate 62 g/ha; scale of 0 to 10 where 0 is no effect and 10 is complete control
Please go through the items and note down their Crabgrass plant response rating.
Give bare numbers.

Can you give me Crabgrass plant response rating for all of these, one by one?
1. CC(C)N(C(=O)n1oc(=O)n(C2CC2)c1=O)c1ccc(Cl)cc1
2. Cc1ccccc1-n1c(=O)on(C(=O)N(c2ccc(N(C)C)cc2)C(C)C)c1=O
3. CC(C)N(C(=O)n1oc(=O)n(CC(=O)OC(C)(C)C)c1=O)c1ccc(F)cc1
4. CC(C)N(C(=O)n1oc(=O)n(CCCF)c1=O)c1ccc(F)cc1
5. Cc1nc(C)c(Cn2c(=O)on(C(=O)N(c3ccc(Cl)cc3)C(C)C)c2=O)s1
6. Cc1c(-n2c(=O)on(C(=O)N(c3ccc(F)cc3F)C(C)C)c2=O)ccc2ccccc12
7. CCOP(=O)(OCC)C(C)n1c(=O)on(C(=O)N(c2ccc(Cl)cc2)C(C)C)c1=O (centres unmarked)
8. C=CCn1c(=O)on(C(=O)N(c2ccc(F)cc2)C2CCC2)c1=O

3
0
1
8
0
0
2
4

Can you give me Crabgrass plant response rating for all of these, one by one?
1. CC(C)N(C(=O)n1oc(=O)n(Cc2ccco2)c1=O)c1ccc(F)cc1
2. CC(C)N(C(=O)n1oc(=O)n(CC#C[Si](C)(C)C)c1=O)c1ccc(F)cc1

[0, 0]

Fill in reported Crabgrass plant response rating for this entry: CC(C)N(C(=O)n1oc(=O)n(C(C)C2CCC2)c1=O)c1ccc(Cl)cc1 (centres unmarked)
0

----------
System: corn
EXPERIMENT: Test B pre/postemergence corn
Format: in vivo, Zea mays
EXPERIMENTAL_CONTEXT: Rate 500 g/ha, Postemergence; scale 0 to 10, 0 no effect, 10 complete control
METRIC: Corn plant response rating
Numbers only.

Use the examples below as a reference point.
COMPOUND | TARGET_UNDER_TEST | Corn plant response rating
CC(C)N(C(=O)n1oc(=O)n(C2CCCCC2)c1=O)c1ccc(F)cc1 | corn | 4
CC(C)N(C(=O)n1oc(=O)n(C2CCCCC2C(F)(F)F)c1=O)c1ccc(F)cc1 (stereo not drawn) | corn | 0
CC(C)N(C(=O)n1oc(=O)n(C2CCCCC2)c1=O)c1ccc(Cl)cc1 | corn | 0
Cc1nn(C)c(C)c1-n1c(=O)on(C(=O)N(c2ccccc2)C(C)C)c1=O | corn | 4
CCN(CC)C(=O)n1oc(=O)n(-c2cccc3c2CCCC3)c1=O | corn | 1

We now examine a further compound.
Fill in reported Corn plant response rating for this entry: `CC(C)N(C(=O)n1oc(=O)n(Cc2cccs2)c1=O)c1ccc(F)cc1`
0

----------
Test system: morningglory
EXPERIMENT: Test B pre/postemergence morningglory
Format: in vivo, Ipomoea hederacea
EXPERIMENTAL_CONTEXT: Preemergence, Rate 500 g/ha; scale of 0 to 10 where 0 is no effect and 10 is complete control
METRIC: Plant response rating, Morningglory
One number for each entry.

Can you give me Plant response rating, Morningglory for all of these, one by one?
1. CC(C)N(C(=O)n1oc(=O)n(Cc2ccco2)c1=O)c1ccc(F)cc1
2. CCN(CC)C(=O)n1oc(=O)n(C2CC2)c1=O
3. CC(C)N(C(=O)n1oc(=O)n(C2CCCC2)c1=O)c1ccc(F)cc1F
4. CCCCCC#CCn1c(=O)on(C(=O)N(c2ccc(F)cc2)C(C)C)c1=O

1. 0
2. 0
3. 2
4. 0

Fill in reported Plant response rating, Morningglory for this entry: C=CCn1c(=O)on(C(=O)N(c2ccc(F)cc2)C(C)C(=O)OCC)c1=O (centres unmarked)
0

----------
System: giant foxtail
EXPERIMENT: Test B pre/postemergence giant foxtail
Format: in vivo, Setaria faberii
EXPERIMENTAL_CONTEXT: Rate 500 g/ha, Postemergence; 0 to 10 scale (0 no effect, 10 complete control)
Please go through the items and note down their Giant foxtail plant response rating.
Answers are plain numbers.

Use the examples below as a reference point.
QUERY_SMILES | TARGET_UNDER_TEST | MEASURED
CCN(CC)C(=O)n1oc(=O)n(-c2ccc(OC)cc2)c1=O | giant foxtail | 8
CC(C)N(C(=O)n1oc(=O)n(-c2cc(Cl)cc(Cl)c2)c1=O)C1=CCOCC1 | giant foxtail | 0

Can you give me Giant foxtail plant response rating for all of these, one by one?
1. CC(C)N(C(=O)n1oc(=O)n(-c2ccc(OC(F)(F)F)cc2)c1=O)C1=CCOCC1
2. CC(C)Oc1cc(-n2c(=O)on(C(=O)N(c3ccc(F)cc3)C(C)C)c2=O)c(Cl)cc1Cl

7
0

----------
Tested on: wild oat
EXPERIMENT: Test B pre/postemergence wild oat
Format: in vivo, Avena fatua
EXPERIMENTAL_CONTEXT: Preemergence, Rate 125 g/ha; scale of 0 to 10 where 0 is no effect and 10 is complete control
I would appreciate it if you labelled entries y when Plant response rating, Wild oats is 7 or higher, otherwise n.

For orientation, consider the following solved cases.
COMPOUND | TARGET_UNDER_TEST | ASSIGNED_LABEL
COC(CCl)n1c(=O)on(C(=O)N(c2ccc(F)cc2F)C(C)C)c1=O (centres unmarked) [Compound 737] | wild oat | n
C#CCCn1c(=O)on(C(=O)N(c2ccc(F)cc2F)C(C)C)c1=O [Compound 744] | wild oat | y
CC(C)N(C(=O)n1oc(=O)n(C(CCl)CCl)c1=O)c1ccc(F)cc1 [Compound 672] | wild oat | n

In plain terms: is recorded Plant response rating, Wild oats at least 7 for CC(C)N(C(=O)n1oc(=O)n(C(C)C2CC2)c1=O)c1ccc(F)cc1 (centres unmarked) [Compound 404] ?
y

In plain terms: is recorded Plant response rating, Wild oats at least 7 for CC(C)N(C(=O)n1oc(=O)n(C2CCCCCC2)c1=O)C1=CCCCC1 [Compound 428] ?
n

In plain terms: is recorded Plant response rating, Wild oats at least 7 for Cc1nc(Cl)sc1C(C)n1c(=O)on(C(=O)N(c2ccc(Cl)cc2)C(C)C)c1=O (centres unmarked) [Compound 406] ?
n

----------
Please go through the items and note down their Barnyardgrass plant response rating.
Tested on: bamyardgrass
EXPERIMENT: Test B flood test barnyardgrass
Type: in vivo, Echinochloa crus-galli
EXPERIMENTAL_CONTEXT: Rate 500 g/ha, Postemergence section of Table B; 0 to 10 scale (0 no effect, 10 complete control)
Method: At the same time, these crop and weed species were also treated with postemergence applications of test chemicals formulated in the same manner. Plants ranged in height from 2 to 18 cm (1- to 4-leaf stage) for postemergence treatments. […] Treated plants and controls were maintained in a greenhouse for twelve to sixteen days, after which all species were compared to controls and visually evaluated. […]
Answers are plain numbers.

Use the examples below as a reference point.
QUERY_SMILES | Barnyardgrass plant response rating
CC(C)N(C(=O)n1oc(=O)n(-c2ccc(OC(F)(F)F)cc2)c1=O)C1=CCOCC1 | 0
CC(C)Oc1cc(-n2c(=O)on(C(=O)N(c3ccc(F)cc3)C(C)C)c2=O)c(Cl)cc1Cl | 0
CCN(CC)C(=O)n1oc(=O)n(-c2ccc(OC)cc2)c1=O | 0
Cc1ccccc1-n1c(=O)on(C(=O)N(c2ccc(F)cc2)C(C)C)c1=O | 4
CCc1ccccc1-n1c(=O)on(C(=O)N(c2ccc(F)cc2F)C(C)C)c1=O | 0

Fill in reported Barnyardgrass plant response rating for this entry: `Cc1ccccc1-n1c(=O)on(C(=O)N(c2ccc(Cl)cc2)C(C)C)c1=O`
0

----------
Test system: cocklebur
EXPERIMENT: Test B pre/postemergence cocklebur
Type: in vivo, Xanthium strumarium
EXPERIMENTAL_CONTEXT: Rate 250 g/ha; Postemergence
Please go through the items and note down their Plant response rating (0 to 10; 0 is no effect, 10 is complete control), Cocklebur.

QUERY_SMILES | TARGET_UNDER_TEST | MEASURED
Cc1ccccc1-n1c(=O)on(C(=O)N(c2ccc(N(C)C)cc2)C(C)C)c1=O | cocklebur | 0

Can you give me Plant response rating (0 to 10; 0 is no effect, 10 is complete control), Cocklebur for all of these, one by one?
1. C=C(Cn1c(=O)on(C(=O)N(c2ccc(F)cc2)C(C)C)c1=O)C[Si](C)(C)C
2. CCCCn1c(=O)on(C(=O)N(c2ccc(F)cc2)C(C)C)c1=O
3. CC(C)N(C(=O)n1oc(=O)n(CC2(C)COC2)c1=O)c1ccc(F)cc1
4. CC(C)N(C(=O)n1oc(=O)n(CC2CC2)c1=O)c1ccc(F)cc1

0
0
0
0

Values from patent US6737383B1
